Biological target: T1, human GIP receptor (human, UniProt P48546 22-466)
T1 sequence (looked up): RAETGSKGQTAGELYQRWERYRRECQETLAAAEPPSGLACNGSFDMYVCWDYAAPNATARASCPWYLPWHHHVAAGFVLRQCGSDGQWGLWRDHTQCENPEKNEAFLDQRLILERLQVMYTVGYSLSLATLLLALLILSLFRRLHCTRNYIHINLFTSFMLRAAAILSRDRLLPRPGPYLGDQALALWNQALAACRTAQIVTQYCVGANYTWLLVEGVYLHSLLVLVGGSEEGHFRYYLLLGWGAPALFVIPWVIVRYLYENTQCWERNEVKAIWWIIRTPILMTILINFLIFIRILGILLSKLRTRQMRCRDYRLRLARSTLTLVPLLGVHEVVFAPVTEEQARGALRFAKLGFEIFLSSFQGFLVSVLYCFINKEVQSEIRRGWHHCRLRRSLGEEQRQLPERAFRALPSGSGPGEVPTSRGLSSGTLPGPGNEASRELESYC
Assay: cell-based or functional assay
binders and their reported Emax, cAMP
Number only, in %; omit the unit.

Check out these entries, answers already filled in.
| binder | measurement-kind | experimental-result |
| --- | --- | --- |
| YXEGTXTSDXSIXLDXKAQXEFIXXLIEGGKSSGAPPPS (Aib2, αMeF(2F)6, 2TA10, αMeL13, Orn16, Aib20, D-Glu24, αMeY25, K17 and K31: K(AEEA2-(γ-Glu)-CO-(CH2)12-CO2H), C-terminal NH2) [Example 145] | Emax, cAMP | 74.8 |
| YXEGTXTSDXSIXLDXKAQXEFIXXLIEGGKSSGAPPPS (Aib2, αMeF(2F)6, 4Pal10, αMeL13, Orn16, Aib20, D-Glu24, αMeY25, K17 and K31: K(AEEA2-(γ-Glu)-CO-(CH2)12-CO2H), C-terminal NH2) [Example 1] | Emax, cAMP | 90.2 |
| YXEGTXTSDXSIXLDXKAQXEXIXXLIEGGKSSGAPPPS (Aib2, αMeF(2F)6, 4Pal10, αMeL13, Orn16, Aib20, αMeF(2F)22, D-Glu24, αMeY25, K17 and K31: K(AEEA2-(γ-Glu)-CO-(CH2)12-CO2H), C-terminal NH2) [Example 88] | Emax, cAMP | 85.1 |
| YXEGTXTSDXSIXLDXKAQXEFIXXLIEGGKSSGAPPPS (Aib2, αMeF(2F)6, 1Nal10, αMeL13, Orn16, Aib20, D-Glu24, αMeY25, K17 and K31: K(AEEA2-(γ-Glu)-CO-(CH2)12-CO2H), C-terminal NH2) [Example 56] | Emax, cAMP | 90.3 |
| YXEGTXTSDXSIXLDXKAQXEFIXXLIEGGKSSGAPPPX (Aib2, αMeF(2F)6, 4Pal10, αMeL13, Orn16, Aib20, D-Glu24, αMeY25, Orn39, K17 and K31: K(AEEA2-(γ-Glu)-CO-(CH2)12-CO2H), C-terminal NH2) [Example 154] | Emax, cAMP | 96.6 |

Input: # Emax, cAMP lookup, item YXEGTXTSDXSIXLDXIAQXEFIKXLIEGGPSSGAPPPSK (Aib2, αMeF(2F)6, 4Pal10, αMeL13, Orn16, Aib20, αMeY25, K24 and K40: K(AEEA2-(γ-Glu)-CO-(CH2)12-CO2H), C-terminal NH2) [Example 72]
Output: 96.5

Input: State the recorded Emax, cAMP for this entry: YXEGTXTSDVSIXLDXKAQXEXIKXLIEGGPSSGAPPPS (Aib2, αMeF(2F)6, αMeL13, Orn16, Aib20, αMeF22, αMeY25, K17 and K24: K(AEEA2-(γ-Glu)-CO-(CH2)12-CO2H), C-terminal NH2) [Example 118]
Output: 94.7

Input: Bench note: what Emax, cAMP did YXEGTXTSDXXIXLDXKAQXEXIKXLIEGGPSSGAPPPS (Aib2, αMeF(2F)6, 4Pal10, Aib11, αMeL13, Orn16, Aib20, αMeF22, αMeF25, K17 and K24: K(AEEA2-(γ-Glu)-CO-(CH2)12-CO2H), C-terminal NH2) [Example 121] show?
Output: 92.8

The values you see were collected from patent US20230265151A1.
